- Assay summary: in vivo
- Condition details: mouse, plasma, po, 100 mg/kg
Measured quantity: Cmax (ng/mL)
Give the quantity in ng/mL, number only.

Task item: Item under review: "CCc1c2c(nc3ccc(OC(=O)N4CCC(N5CCCCC5)CC4)cc13)-c1cc3c(c(=O)n1C2)COC(=O)[C@]3(O)CC" . Reported Cmax?
Reply: 477

---

- Assay summary: physchem
- Condition details: phosphate buffer (control for the cyclodextrin mixtures), aqueous buffer
Measured quantity: solubility (µg/mL)
Give the quantity in µg/mL, number only.

Task item: Item under review: CC(=O)O[C@@]12CO[C@@H]1C[C@H](O)[C@@]1(C)C(=O)[C@H](O)C3=C(C)[C@@H](OC(=O)[C@H](O)[C@@H](NC(=O)OC(C)(C)C)c4ccccc4)C[C@@](O)([C@@H](OC(=O)c4ccccc4)[C@H]21)C3(C)C [docetaxel] . Reported solubility?
Reply: 1.9

---

- Assay summary: in vivo
- Condition details: mouse, plasma, oral, 100 mg/Kg
Measured quantity: bioavailability (%)
Give the quantity in %, number only.

Task item: Item under review: CCc1c2c(nc3ccc(OC(=O)N4CCC(N5CCCCC5)CC4)cc13)-c1cc3c(c(=O)n1C2)COC(=O)[C@]3(O)CC [IRN, Irinotecan] . Reported bioavailability?
Reply: 27.1

---

- Assay summary: in vivo
- Condition details: mouse, plasma, iv, 20 mg/kg
Measured quantity: AUC (ng·h/mL)
Give the quantity in ng·h/mL, number only.

Task item: Item under review: CCc1c2c(nc3ccc(OC(=O)N4CCC(N5CCCCC5)CC4)cc13)-c1cc3c(c(=O)n1C2)COC(=O)[C@]3(O)CC [IRN, Irinotecan] . Reported AUC?
Reply: 1280

---

- Assay summary: in vivo
- Condition details: mouse, plasma, po, 100 mg/kg
Measured quantity: Tmax (h)
Give the quantity in h, number only.

Task item: Item under review: "CCc1c2c(nc3ccc(OC(=O)N4CCC(N5CCCCC5)CC4)cc13)-c1cc3c(c(=O)n1C2)COC(=O)[C@]3(O)CC" . Reported Tmax?
Reply: 2.06
